# Target under test: olfactory receptor OR2L3 (Homo sapiens, UniProt Q8NG85)
# Construct: N-terminal 20 amino acid residues of bovine rhodopsin (Rho tag); expressed in transfected cells; host or cells: HEK293T cells, transient lipofection with the pME18S expression vector, an RTP1S vector and the luciferase reporter vectors
# Sequence (Q8NG85 1-312): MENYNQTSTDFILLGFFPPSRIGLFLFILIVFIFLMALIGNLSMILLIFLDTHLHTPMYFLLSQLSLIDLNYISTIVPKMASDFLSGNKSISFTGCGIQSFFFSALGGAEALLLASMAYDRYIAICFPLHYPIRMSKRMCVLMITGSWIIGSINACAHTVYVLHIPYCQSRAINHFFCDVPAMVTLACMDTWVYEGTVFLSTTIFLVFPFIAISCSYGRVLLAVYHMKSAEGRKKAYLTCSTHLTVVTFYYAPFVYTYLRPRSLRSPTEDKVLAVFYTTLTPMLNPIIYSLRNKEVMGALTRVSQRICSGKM
# Measurement notes: Luciferase reporter gene assay: effect of suppressing the response of OR2L3 to unpleasant odor-causing substance
# Type: cell-based
# Particulars: test substance mixed with skatole; ratio of Fold Increase value; FIGS. 6 to 9
# Protocol: 0.05 μg of the human olfactory receptor gene expression vector, 0.01 μg of an RTP1S vector, 0.01 μg of a firefly luciferase vector pGL4.29 containing a cAMP-responsive sequence promoter (Promega), and 0.005 μg of a Renilla luciferase vector pGL4.74 containing a thymidine kinase promoter (Promega) were dissolved in 10 μL of Opti-MEM I (gibco) to obtain a gene solution (for one well). […]
Value kind: Effect of suppressing the response of OR2L3 to skatole

CCCCCCOC(=O)c1ccccc1O [Hexyl salicylate, hexyl salicylate, reference compound] : did not suppress
CC(C)(C)C1CCC(O)CC1 (stereo not drawn) [4-t-butyleyclohexanol, 4-t-butylcyclohexanol, reference compound] : did not suppress

Where these numbers come from: patent US12268798B2
